Target: IRAK4 (Homo sapiens, UniProt Q9NWZ3)
Sequence (Q9NWZ3 1-460): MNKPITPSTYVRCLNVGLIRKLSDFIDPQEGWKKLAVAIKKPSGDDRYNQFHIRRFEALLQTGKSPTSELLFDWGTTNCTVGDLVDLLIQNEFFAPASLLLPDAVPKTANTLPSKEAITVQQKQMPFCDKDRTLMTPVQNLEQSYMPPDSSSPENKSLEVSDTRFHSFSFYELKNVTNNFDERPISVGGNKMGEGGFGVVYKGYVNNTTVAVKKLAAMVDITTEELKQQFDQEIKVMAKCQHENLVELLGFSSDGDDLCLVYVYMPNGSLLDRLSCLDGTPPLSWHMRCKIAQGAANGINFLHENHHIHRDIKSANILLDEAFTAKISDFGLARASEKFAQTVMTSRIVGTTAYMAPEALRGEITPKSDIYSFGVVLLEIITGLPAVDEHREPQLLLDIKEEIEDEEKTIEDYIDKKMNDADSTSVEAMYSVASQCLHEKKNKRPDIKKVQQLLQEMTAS
Experiment: Hibit fluorescence detection of proteolysis (IRAK4-HiBiT in HEK293T cells)
Format: cell-based
Set-up: host or cells: HEK293T (ATCC)
Details: IRAK4-HiBiT, HEK293T cells, 24 h
metric_name: DC50

IRAK4 (Homo sapiens, UniProt Q9NWZ3) assay, molecule NC(=O)c1cnn2c(-c3cn(-c4cn([C@H]5CC[C@H](CN6CCN(c7ccc(C(=O)NC8CCC(=O)NC8=O)c(F)c7)CC6)CC5)nc4C(F)F)nn3)ccc2c1 (some centres unmarked) [Example 31] , recorded DC50 = > 5 nM

Result for Cn1c(=O)n(C2CCC(=O)NC2=O)c2cccc(N3CCN(C4CCN(C[C@H]5CC[C@H](n6cc(-n7cc(-c8cnn9ccc(NCC%10CC%10)nc89)nn7)c(C(F)F)n6)CC5)CC4)CC3)c21 (some centres unmarked) [Example 110] , tested on IRAK4 (Homo sapiens, UniProt Q9NWZ3), DC50: < 0.5 nM

Assay IRAK4 (Homo sapiens, UniProt Q9NWZ3), sample Cn1c(=O)n(C2CCC(=O)NC2=O)c2cccc(N3CCC4(CCN(C[C@H]5CC[C@H](n6cc(-n7cc(-c8cnn9ccc(NCC%10CC%10)nc89)nn7)c(C(F)F)n6)CC5)C4)CC3)c21 (some centres unmarked) [Example 113] , DC50 read: < 0.5 nM

Record for CN(C[C@H]1CC[C@H](n2cc(-n3cc(-c4cnn5ccc(N6CCOCC6)nc45)nn3)c(C(F)F)n2)CC1)C1CCC2(CC1)CC(Nc1cccc3c1n(C)c(=O)n3C1CCC(=O)NC1=O)C2 (some centres unmarked) [Example 23] under target or system IRAK4 (Homo sapiens, UniProt Q9NWZ3): DC50 reported as < 0.5 nM

Response field DC50 (IRAK4 (Homo sapiens, UniProt Q9NWZ3)) for item Cn1c(=O)n(C2CCC(=O)NC2=O)c2cccc(CC3CCN(CC4CCN(C[C@H]5CC[C@H](n6cc(-n7cc(-c8cnn9ccc(N%10CCOCC%10)nc89)nn7)c(C(F)F)n6)CC5)CC4)CC3)c21 (some centres unmarked) [Example 8] : > 5 nM

* * *

biological target: IRAK4 (Homo sapiens, UniProt Q9NWZ3); assay: WB detection of proteolysis (Western Blot, THP-1 cells); type: cell-based; conditions: Western Blot, THP-1 cells, 24 h; read-out: DC50
Answer each item with its documented DC50.

What the record says about Cn1c(=O)n(C2CCC(=O)NC2=O)c2cccc(N3CCC(N4CCN(C[C@H]5CC[C@H](n6cc(-n7cc(-c8cnn9ccc(N%10CCC(O)CC%10)nc89)nn7)c(C(F)F)n6)CC5)CC4)CC3)c21 (stereo partly drawn) : DC50 is < 10 nM

Measured DC50, Cn1c(=O)n(C2CCC(=O)NC2=O)c2cccc(N3CCC(CN4CCC5(CCC(n6cc(-n7cc(-c8ccc9cc(C(N)=O)cnn89)nn7)c(C(F)F)n6)CC5)CC4)CC3)c21 (stereo not drawn) : < 10 nM

compound Cn1c(=O)n(C2CCC(=O)NC2=O)c2cccc(N3CCN(C4CCN(C[C@H]5CC[C@H](n6cc(-n7cc(-c8cnn9ccc(N%10CCC[C@@H](O)C%10)nc89)nn7)c(C(F)F)n6)CC5)CC4)CC3)c21 (stereo partly drawn) , DC50 observed: < 10 nM

For Cn1c(=O)n(C2CCC(=O)NC2=O)c2cccc(N3CCC4(CCN(C[C@H]5CC[C@H](n6cc(-n7cc(-c8cnn9ccc(N%10CCC[C@H](O)C%10)nc89)nn7)c(C(F)F)n6)CC5)CC4)CC3)c21 (stereo partly drawn) the compound record lists DC50 as < 10 nM

Entry Cn1c(=O)n(C2CCC(=O)NC2=O)c2cccc(N3CCC4(CCN(C[C@H]5CC[C@H](n6cc(-n7cc(-n8ccc9cc(C(N)=O)cnc98)nn7)c(C(F)F)n6)CC5)CC4)CC3)c21 (stereo partly drawn) , DC50 reported as 10 to 30 nM

response.value for Cn1c(=O)n(C2CCC(=O)NC2=O)c2cccc(N3CCC4(CCN(C[C@H]5CC[C@H](n6cc(-n7cc(-c8cnn9ccc(N%10CCC(C)(O)CC%10)nc89)nn7)c(C(F)F)n6)CC5)CC4)C3)c21 (stereo partly drawn) (field: DC50) = < 10 nM

Entry Cn1c(=O)n(C2CCC(=O)NC2=O)c2cccc(N3CCC4(CCN(C[C@H]5CC[C@H](n6cc(-n7cc(-c8cnn9ccc(N[C@H]%10CCCC[C@H]%10O)nc89)nn7)c(C(F)F)n6)CC5)C4)CC3)c21 (stereo partly drawn) ; DC50 = 10 to 30 nM

The compound listed as Cn1c(=O)n(C2CCC(=O)NC2=O)c2cccc(N3CCC4(CCN(C[C@H]5CC[C@H](n6cc(-n7cc(-c8ccc9cc(C(N)=O)cnn89)nn7)c(C(F)F)n6)CC5)CC4)CC3)c21 (stereo partly drawn) has a reported DC50 of < 10 nM

DC50 reported for this compound C[C@H]1CN(C2CCN(c3cccc4c3n(C)c(=O)n4C3CCC(=O)NC3=O)CC2)CCN1C[C@H]1CC[C@H](n2cc(-n3cc(-c4cnn5ccc(N6CCC[C@H](O)C6)nc45)nn3)c(C(F)F)n2)CC1 (stereo partly drawn) : < 10 nM

* * *

So I've got a bunch of molecules here, and I need their DC50 values.
Molecular target: IRAK4 (Homo sapiens)
Sequence (Q9NWZ3 1-460): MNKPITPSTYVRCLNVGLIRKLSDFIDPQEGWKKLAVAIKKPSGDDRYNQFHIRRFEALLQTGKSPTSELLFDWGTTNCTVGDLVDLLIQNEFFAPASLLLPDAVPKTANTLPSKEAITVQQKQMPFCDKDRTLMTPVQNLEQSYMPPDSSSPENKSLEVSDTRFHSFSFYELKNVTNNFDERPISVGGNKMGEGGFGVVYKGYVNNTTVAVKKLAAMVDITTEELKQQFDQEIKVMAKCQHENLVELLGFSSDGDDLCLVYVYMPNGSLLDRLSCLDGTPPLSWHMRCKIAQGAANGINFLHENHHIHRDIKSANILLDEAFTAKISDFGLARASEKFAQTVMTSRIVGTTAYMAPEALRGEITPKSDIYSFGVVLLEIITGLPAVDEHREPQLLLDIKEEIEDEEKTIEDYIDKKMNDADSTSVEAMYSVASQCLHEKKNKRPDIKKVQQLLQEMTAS
Experiment: WB detection of proteolysis (Western Blot, THP-1 cells)
Type: cell-based
Conditions: Western Blot, THP-1 cells, 24 h; read-out: DC50
Where a name gives a salt, the structure may show the parent alone.

DC50 reading for Cn1c(=O)n(C2CCC(=O)NC2=O)c2cccc(N3CCC(CN4CCC5(CCC(n6cc(-n7cc(-c8cnn9ccc(N%10CCC[C@H](O)C%10)nc89)nn7)c(C(F)F)n6)CC5)CC4)CC3)c21 (some centres unmarked) [Example 290] : < 0.01 µM

Measured DC50 of Cn1c(=O)n(C2CCC(=O)NC2=O)c2cccc(N3CCN(C4CCN(C[C@H]5CC[C@H](n6cc(-n7cc(-c8cnn9ccc(N[C@@H]%10CCCC[C@@H]%10O)nc89)nn7)c(C(F)F)n6)CC5)CC4)CC3)c21 (some centres unmarked) [Example 153] : < 0.01 µM

Quick note, DC50 for Cn1c(=O)n(C2CCC(=O)NC2=O)c2cccc(N3CCC4(CCN(C[C@H]5CC[C@H](n6cc(-n7cc(-c8cnn9ccc(NCCC(C)(C)O)nc89)nn7)c(C(F)F)n6)CC5)CC4)CC3)c21 (some centres unmarked) [Example 126] landed at < 0.01 µM

Input Cn1c(=O)n(C2CCC(=O)NC2=O)c2cccc(N3CCC(N4CCN(C[C@H]5CC[C@H](n6cc(-n7cc(-c8cnn9ccc(N%10CCNCC%10)nc89)nn7)c(C(F)F)n6)CC5)CC4)CC3)c21 (some centres unmarked) [Example 127, dihydrochloride] . Output DC50: 0.01 to 0.03 µM

In plain terms, Cn1c(=O)n(C2CCC(=O)NC2=O)c2cccc(N3CCN(C4CCN(C[C@H]5CC[C@H](n6cc(-n7cc(-c8cnn9ccc(N%10CCC[C@H](O)C%10)nc89)nn7)c(C(F)F)n6)CC5)CC4)CC3)c21 (some centres unmarked) [Example 144] has a documented DC50 of < 0.01 µM

Values from patent EP4759807A1
